Reference source: a melting point compilation (Tetko et al.; mined from patent text by program, amines drawn as free bases though some values may be those of a salt)

Reported melting point by item:

# annotated cases, reported melting point shown
Cc1ccccc1NC(=O)c1c(C)nn(C)c1N: 113 to 115 °C
COc1cccc(CC(=O)O)c1OCCn1cc(C(=O)NCc2ccc(Cl)cc2Cl)c(OC(C)C)n1: 154 to 155 °C
O=C(O)C(=O)c1c(Cl)cc(OCCOc2ccc3ccccc3c2)cc1Cl: 155 to 156 °C
CCCOc1ccccc1N1CCN(CCCCn2c(=O)[nH]c(=O)c3ccccc32)CC1: 68 °C
Cc1nn(C)c2c1N=C(C1CC1)N1CC(C)N=C21 (stereo not given): 107 to 110 °C

Query: melting point; subject: O=C1Nc2ccc(Cl)c(Cl)c2C1c1ccccc1F (stereo not given)
244 to 247 °C

Do the same for `CCN1C(=O)CN(C(=O)OCc2ccccc2)Cc2cc(OC)c([N+](=O)[O-])cc21` please
55 to 56 °C

Do the same for O=C(NC(Cc1ccc(OCc2ccccc2)cc1)C(=O)O)c1cn2cc(-c3ccc(Cl)cc3Cl)ccc2n1 (stereo not given) please
237 to 239 °C

Do the same for CCCC1C(=O)N(S(=O)(=O)c2ccc3ccccc3c2)C2CCN(S(=O)(=O)CCCN3CCOCC3)C12 (stereo not given) please
189 to 192 °C

Do the same for `O=C(O)CCC(=O)N1CCCc2cc(S(=O)(=O)N3CCN(c4cccc(Cl)c4)CC3)ccc21` please
135 to 136 °C

Do the same for `Cc1nc(C)c(Cl)c(NCc2ccc(O)cc2)n1` please
202 °C

Do the same for `CCCCCCCCCCCCCCOc1ccc(CN(Cc2ccccn2)S(C)(=O)=O)cc1` please
62 to 63 °C

Do the same for `Nc1cc(Br)nn1-c1c(Cl)cc(C(F)(F)F)cc1Cl` please
132 to 134 °C

Do the same for CN1CCN(C(=S)C2(c3ccccn3)CCCS2)CC1 (stereo not given) please
124 °C

Do the same for `COc1cc(Cc2cnc(N)nc2N)cc(OC)c1Cl` please
218 °C

Do the same for `CCOC(=O)c1cccc(-c2cc3c(O)ncnc3[nH]2)c1` please
> 250 °C

Do the same for `N#Cc1nn(-c2c(Cl)cc(C(F)(F)F)cc2Cl)c(Cl)c1C=C(Br)Br` please
119 to 120 °C

Do the same for `Cc1c(C(=O)O)cnn1-c1nc(-c2ccc(Cl)c(Cl)c2)cs1` please
278 to 279 °C

Do the same for CC(=O)NC1CCNC(c2cccc(Oc3ccccc3)n2)C1 (stereo not given) please
104 to 106 °C

Do the same for CC(=O)SCC(C)C(=O)N(CC(=O)O)Cc1ccco1 (stereo not given) please
140 to 141 °C

---

endpoint.name: melting point

# annotated cases, reported melting point shown
Cc1cnc(S(=O)(=O)c2ccccc2)c(C)c1Cl: 91 to 92 °C
N#CC1CCCn2cccc21 (stereo unspecified): 47 to 49 °C
O=C(O)c1cccc2cc(Oc3c(Cl)cc(NS(=O)(=O)c4ccc(Cl)cc4Cl)cc3Cl)cnc12: 263 to 266 °C
O=C1CCCN1CCCN=c1sc2ccc(Cl)cc2s1: 97 to 97.5 °C

Query: melting point; subject: `COC(=O)N[C@H](C(=O)O)C(C)(C)C`
106 to 108 °C

Do the same for `O=C1NC(=O)C(Br)(c2ccc(Oc3ccccc3)cc2)C(=O)N1` please
125 to 127 °C

Do the same for `Oc1ccc([C@H]2CC[C@H](NCCNc3ccccc3)CC2)cc1` please
180 to 184 °C
